# testMethodNotes: chemical genetic growth profiling, strain panel (AID 1159580);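 note: tested at 20 µM; growth read once vehicle control cultures reached saturation at 30 °C; 1 = growth at the plate median or of vehicle wells; lower values mean less growth of the strain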
# conditionInfo: S. cerevisiae deletion strains, growth OD, locus YKL101W, strain HSL1, active compounds read low
The campaign covered roughly 5,500 compounds. About 2,000 (36%) were called active. Roughly 18% stayed inconclusive and do not appear here. The list shows a part of the results.
Would you kindly list normalized growth for each of these molecules?
Response field accepts a number only; no unit should be typed.

**Q:** I would be grateful if you could share the reported normalized growth for `COC(=O)C1=C(Nc2ccccc2NS(=O)(=O)c2ccc(C(F)(F)F)cc2Cl)CSC1` .
**A:** 0.932

**Q:** Do the same for `CC(C)(C)c1cc(C(=O)Nc2ccc3c(c2)OCO3)n(Cc2ccc(F)cc2)n1` please
**A:** 0.891

**Q:** Do the same for O=C(CSC1=NNC(c2ccccn2)S1)Nc1ccccc1 (stereo unspecified) please
**A:** 0.981

**Q:** Do the same for `Cc1onc(-c2c(F)cccc2Cl)c1/C(N)=N\OC(=O)c1ccc(C(C)(C)C)cc1` please
**A:** 0.972

**Q:** Do the same for `CSc1sc(C(=O)Sc2ccccc2)cc1S(=O)(=O)C(C)C` please
**A:** 0.94

**Q:** Do the same for C#CCSC1=NNC(c2ccccn2)S1 (stereo unspecified) please
**A:** 0.173

**Q:** Do the same for `O=C1c2cccc3c(Sc4ccccc4)ccc(c23)C(=O)N1NCCO` please
**A:** 0.804

**Q:** Do the same for `COC(=O)c1sccc1NS(=O)(=O)c1cc(Cl)cc(Cl)c1` please
**A:** 0.959

**Q:** Do the same for `CC(=O)c1ccc(Cl)c(N=Cc2cc(Cl)cc(Cl)c2O)c1` please
**A:** 0.308

**Q:** Do the same for `O=C(Nc1ccc(F)cc1F)c1cc(Cl)c(-n2cccc2)c(Cl)c1` please
**A:** 0.929

**Q:** Do the same for `CCOC(=O)c1ccc(Cl)c(N=Cc2cc(Cl)cc(Cl)c2O)c1` please
**A:** 0.608
